# System under test: BCL-XL (Homo sapiens, UniProt Q07817)
# Construct: BCL-XL degradation results in MOLT-4 cells for compounds of the invention; endogenous in cells; host or cells: MOLT-4
# Sequence (Q07817 whole entry): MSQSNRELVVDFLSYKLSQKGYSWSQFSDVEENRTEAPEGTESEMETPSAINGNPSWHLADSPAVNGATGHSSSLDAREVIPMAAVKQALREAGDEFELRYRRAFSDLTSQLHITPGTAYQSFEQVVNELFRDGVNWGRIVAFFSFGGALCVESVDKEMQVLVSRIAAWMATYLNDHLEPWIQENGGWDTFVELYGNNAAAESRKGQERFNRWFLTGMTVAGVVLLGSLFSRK
# Test summary: BCL-XL degradation assay in MOLT-4 cells (ELISA, 6 h)
# Format: cell-based
Observed property: Dmax

Examples with answers:
Which measured Dmax value corresponds to Cc1ncsc1-c1ccc([C@H](C)NC(=O)[C@@H]2C[C@@H](O)CN2C(=O)[C@@H](NC(=O)CCCCCN(C)CCCNc2ccc(S(=O)(=O)NC(=O)c3ccc(N4CCC([C@H](O)c5ccccc5-c5ccc(Cl)cc5)CC4)cc3Oc3cnc4[nH]ccc4c3)cc2S(=O)(=O)C(F)(F)F)C(C)(C)C)cc1 [I-67] ? 50 to 75%

Value lookup for Dmax; key = C#Cc1ccc([C@H](C)NC(=O)[C@@H]2C[C@@H](O)CN2C(=O)[C@@H](NC(=O)CCCCCC(=O)N2CCN(CCCNc3ccc(S(=O)(=O)NC(=O)c4ccc(N5CCN(CC6=C(c7ccc(Cl)cc7)CC(C)(C)CC6)CC5)cc4Oc4cnc5[nH]ccc5c4)cc3S(=O)(=O)C(F)(F)F)CC2)C(C)(C)C)cc1 [I-85] < 50%

***
For the compound shown here, Cc1ncsc1-c1ccc([C@H](C)NC(=O)[C@@H]2C[C@@H](O)CN2C(=O)[C@@H](NC(=O)CCCCCCC(=O)N2CCN(Cc3ccc(-c4ccc(Cl)cc4)c(CN4CCN(c5ccc(C(=O)NS(=O)(=O)c6ccc(N[C@H](CCN(C)C)CSc7ccccc7)c([N+](=O)[O-])c6)cc5)CC4)c3)CC2)C(C)(C)C)cc1 [I-5] , give the reported Dmax. > 75%
